- measurement target: RORγt ligand-binding domain (RORγt-LBD) (Homo sapiens, UniProt P51449)
- Construct: 20 nM recombinantly expressed RORγ-LBD fused to GST
- Sequence (P51449 269-508 limits assumed): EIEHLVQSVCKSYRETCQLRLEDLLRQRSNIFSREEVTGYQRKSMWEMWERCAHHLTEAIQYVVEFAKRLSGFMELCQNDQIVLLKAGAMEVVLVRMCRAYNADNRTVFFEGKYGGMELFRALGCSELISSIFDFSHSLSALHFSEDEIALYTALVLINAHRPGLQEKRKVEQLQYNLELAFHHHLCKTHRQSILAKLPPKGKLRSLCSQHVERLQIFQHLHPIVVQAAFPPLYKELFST
- test: Time-resolved FRET (TR-FRET) RORγt coactivator assay
- condition label: GST-RORγ-LBD, biotinylated RIP140 peptide, coactivator displacement
IC50 reference

> print(dat)
                                   molecule    measured.value
1  COC(=O)Cc1c[nH]c2ccc(CC(=O)NC(c3ccccc3)c3ccccc3N3CCOCC3)cc12 (centres unmarked) [Cpd. 224]         < 1000 nM
2  COC(=O)Cc1c[nH]c2ccc(CC(=O)NC(c3ncccn3)c3ccc(C)cc3Br)cc12 (centres unmarked) [Cpd. 256]  1000 to 10000 nM
3  Cc1ccc(C(NC(=O)Cc2ccc3[nH]cc(CCC(=O)O)c3c2)c2ccccc2N2CCCCC2)cc1 (centres unmarked) [compound 188]         < 1000 nM
4  Cc1ccc(C(NC(=O)Cc2ccc3[nH]cc(CCC(=O)O)c3c2)c2ccccn2)c(C)c1 (centres unmarked) [Cpd. 21]         < 1000 nM
5  Cc1ccc(C(NC(=O)Cc2ccc3[nH]cc(CC(=O)O)c3c2)c2ccccc2)c(N2CCOCC2)c1 (centres unmarked) [Cpd. 97]  1000 to 10000 nM

Req: Could you tell me which IC50 is on file for O=C(O)CCc1c[nH]c2ccc(CC(=O)NC(c3ccccc3)c3ccccc3-n3cccc3)cc12 (centres unmarked) [compound 107] ?
Resp: < 1000 nM

Req: # iterate: CC(C)CCC(NC(=O)Cc1ccc2[nH]cc(CCC(=O)O)c2c1)c1ccccc1N1CCCCC1 (centres unmarked) [compound 245]
Resp: < 1000 nM

Req: # iterate: O=C(O)CCc1c[nH]c2ccc(CC(=O)NC(c3ccccc3)c3cc(Cl)ccc3N3CCCCC3)cc12 (centres unmarked) [compound 62]
Resp: < 1000 nM
